B1: POMT2 (parent)
chain: LRGGGQVLLGWTLHYFPFFLMGRV

variants of: B1; test: protein stability index of a GFP-peptide fusion (GPS, HEK-293T) (PSI 1-6); higher = more stable; details: c terminus: a fixed tail appended;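 also: lentivirally expressed fusions sorted by FACS into six bins by GFP to DsRed ratio, PSI derived from sequencing read proportions per bin multiplied by bin number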
// protein stability index lookup, one value per entry
Please give only the number in your answer, with no unit.

- sequence variant: "W11N"
  protein stability index: 4.22

Read the next record carefully.
Look up and report measured protein stability index for this entry: L9E
1.89
